Test system: Streptococcus suis P1/7
Assay: percent growth relative to DMSO control; higher = less growth inhibition
Condition parameters: 10 µM; incubation time 18 h
Assay endpoint: percent growth (%)
Answer in %, number only, no unit symbol.

Record CN1CCCC1CCO[C@](C)(c1ccccc1)c1ccc(Cl)cc1 (some centres not stated) , field percent growth: 78.1

Record `CN(C)CCNC(=O)N1CCCN(c2ncnc3cc(-c4ccccc4)sc23)CC1` , field percent growth: 72.1

Record `OCCc1ccc(Nc2nccc(-c3nnc4ccccn34)n2)cc1` , field percent growth: 88.5

Record `C[C@]1(O)C[C@@H](c2nc(-c3ccc4ccc(-c5ccccc5)nc4c3)c3c(N)nccn32)C1` , field percent growth: 97

Record `c1ccc(Oc2ccc(-c3cncc(-c4ccc5[nH]ccc5c4)n3)cc2)cc1` , field percent growth: 83.7

Record `COc1ccc(Cl)cc1NC(=O)CN(C)C(=O)c1cnn(-c2ccccc2)n1` , field percent growth: 80.3

Record `O=C(Nc1nnc(S)s1)c1cc(Br)ccc1Cl` , field percent growth: 79.5

Record `CCS(=O)(=O)N(Cc1ccco1)Cc1cc2ccc(C)cc2nc1O` , field percent growth: 77.1

Record `O=C(c1ccc(F)cc1)N(CCNc1ccccc1)c1ccccc1` , field percent growth: 122

Record `O=C(Nc1nnc(-c2ccc(Cl)s2)o1)c1ccc(Cl)s1` , field percent growth: 3.26

Record `CCOc1ccc2cc(-c3nn(CC4CCN(C)CC4)c4ncnc(N)c34)ccc2c1` , field percent growth: 99.3

Record `Cc1ccccc1C(=O)N1N=C(Nc2ccccc2)SC1(C)C` , field percent growth: 80.9

Record `COc1ccc(-c2cnc3ccc(NCc4ccc(S(N)(=O)=O)cc4)nn23)cn1` , field percent growth: 89.2

Record `COc1ccc(-c2nn(C(C)C)c3ncnc(N)c23)cc1OC` , field percent growth: 121

Record `COC(=O)Nc1nc2cc(C(=O)c3ccccc3)ccc2[nH]1` , field percent growth: 74.9

Record `CCC(=O)Nc1ccccc1C(=O)Nc1ccccn1` , field percent growth: 103

Record `Brc1cncc(-c2cc(NCCCn3ccnc3)nc(-c3ccccc3)n2)c1` , field percent growth: 43.7

* * *

System: Streptococcus suis P1/7
Assay: percent growth relative to DMSO control; higher = less growth inhibition
Condition parameters: 10 µM; incubation time 18 h
Assay endpoint: percent growth

Record `Nc1cccnc1Nc1ccc(Cl)cc1` , field percent growth: 101%

Record `Cc1cc(C(=O)Nc2ccc(-c3ccccc3)cc2)no1` , field percent growth: 118%

Record `CC(C)(C)OC(=O)N1CCN(c2nccc(-c3ccc(-c4ccc(Cl)cc4)s3)n2)CC1` , field percent growth: 129%

Record `O=C(Nc1cccc(Cl)c1)c1cnc(N2CCN(c3ccncc3)CC2)c(Cl)c1` , field percent growth: 20.4%

Record `COc1ccccc1OCCCCn1c(C2CC2)nc2ccccc21` , field percent growth: 102%

Record `NCC(=O)N1CCn2c(nc(-c3ccccc3)c2Nc2ccc3c(c2)OCO3)C1` , field percent growth: 71.3%

Record `COc1cc2ncnc(NC3CCN(Cc4ccccc4)CC3)c2cc1OC` , field percent growth: 122%

Record CC1=Nc2ccc(Cl)cc2C(c2ccccc2)N1CCNC(=O)CN(C)C (stereo not drawn) , field percent growth: 84.5%

Record `CC(C)(C(=O)Nc1ccc(F)cc1)n1cc(-c2ccccc2F)cn1` , field percent growth: 84.1%

Record `O=C(c1[nH]nc2c1CCCC2)N1CCN(Cc2ccc3c(c2)OCO3)CC1` , field percent growth: 99.9%

Record CCc1cc(=O)n(C)c(SC(C)C(=O)Nc2ccc(F)cc2)n1 (stereo not drawn) , field percent growth: 74.8%

Record `NC(=O)c1cc(Br)ccc1OCCOc1ccccc1` , field percent growth: 73.4%

Record `CCn1cnc2c(Nc3cc(F)cc(F)c3)nc(C#N)nc21` , field percent growth: 75.3%
